All values here come from patent US20110158985A1.

The following binders are shown together with reported Kd values.
Tgt: T1, recombinant C-terminally truncated RSV (A2 strain) F protein (RSV (A2 strain), UniProt P03420 26-524)
T1 construct: extracellular domain; also called truncated F protein; extracellular domain of the F protein from RSV A2
Procedure Details: SPR (BIAcore), IgG over immobilised F
Write the answer as a number in pM, unit excluded.

Solved entries:
For the binder A17d4(1) IgG (antibody, V domains shown) VH: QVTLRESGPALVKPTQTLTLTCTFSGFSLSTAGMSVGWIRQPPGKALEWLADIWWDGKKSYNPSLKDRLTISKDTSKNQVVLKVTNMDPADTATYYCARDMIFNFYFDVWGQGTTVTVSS VL: DIQMTQSPSTLSASVGDRVTITCLPSSRVGYMHWYQQKPGKAPKLLIYDTMYQSSGVPSRFSGSGSGTEFTLTISSLQPDDFATYYCFQGSGYPFTFGGGTKVEIKR , give its measured Kd value.
89

Identify measured Kd associated with A12a6 IgG (antibody, V domains shown) VH: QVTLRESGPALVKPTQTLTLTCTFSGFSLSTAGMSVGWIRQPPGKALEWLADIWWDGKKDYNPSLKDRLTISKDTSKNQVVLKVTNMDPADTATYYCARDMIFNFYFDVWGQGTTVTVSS VL: DIQMTQSPSTLSASVGDRVTITCSASSRVGYMHWYQQKPGKAPKLLIYDTFKLSSGVPSRFSGSGSGTEFTLTISSLQPDDFATYYCFQGSGYPFTFGGGTKVEIKR
36

Recall and state the measured Kd for A1e9 IgG (antibody, V domains shown, also called Ale9) VH: QVTLRESGPALVKPTQTLTLTCTFSGFSLSTAGMSVGWIRQPPGKALEWLADIWWDGKKHYNPSLKDRLTISKDTSKNQVVLKVTNMDPADTATYYCARDMIFNWYFDVWGQGTTVTVSS VL: DIQMTQSPSTLSASVGDRVTITCSLSSRVGYMHWYQQKPGKAPKLLIYDTFKLSSGVPSRFSGSGSGTEFTLTISSLQPDDFATYYCFQGSGYPFTFGGGTKVEIKR .
330

---
Give the reported value of Kd for this record: P11d4 IgG (antibody, V domains shown) VH: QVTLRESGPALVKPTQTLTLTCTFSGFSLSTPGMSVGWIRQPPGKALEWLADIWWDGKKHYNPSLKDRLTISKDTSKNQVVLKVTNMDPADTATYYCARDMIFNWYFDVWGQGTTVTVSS VL: DIQMTQSPSTLSASVGDRVTITCSPSSRVGYMHWYQQKPGKAPKLLIYDTMRLASGVPSRFSGSGSGTEFTLTISSLQPDDFATYYCFQGSGYPFTFGGGTKVEIKR
620

Kindly indicate its recorded Kd. Item: P12f2 IgG (antibody, V domains shown) VH: QVTLRESGPALVKPTQTLTLTCTFSGFSLSTPGMSVGWIRQPPGKALEWLADIWWDDKKHYNPSLKDRLTISKDTSKNQVVLKVTNMDPADTATYYCARDMIFNFYFDVWGQGTTVTVSS VL: DIQMTQSPSTLSASVGDRVTITCSLSSRVGYMHWYQQKPGKAPKLLIYDTFYLSSGVPSRFSGSGSGTEFTLTISSLQPDDFATYYCFQGSGYPFTFGGGTKVEIKR
314

Using known records, supply Kd for P12f4 IgG (antibody, V domains shown) VH: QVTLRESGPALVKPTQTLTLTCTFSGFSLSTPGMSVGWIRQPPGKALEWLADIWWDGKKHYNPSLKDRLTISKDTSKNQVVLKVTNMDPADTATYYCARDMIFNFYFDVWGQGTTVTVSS VL: DIQMTQSPSTLSASVGDRVTITCSLSSRVGYMHWYQQKPGKAPKLLIYDTRGLPSGVPSRFSGSGSGTEFTLTISSLQPDDFATYYCFQGSGYPFTFGGGTKVEIKR
112

Supply Kd value. Item: A4B4 IgG (antibody, V domains shown) VH: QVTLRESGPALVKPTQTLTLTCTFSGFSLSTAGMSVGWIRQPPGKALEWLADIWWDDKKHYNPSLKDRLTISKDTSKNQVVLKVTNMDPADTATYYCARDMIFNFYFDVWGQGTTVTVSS VL: DIQMTQSPSTLSASVGDRVTITCSASSRVGYMHWYQQKPGKAPKLLIYDTFFLDSGVPSRFSGSGSGTEFTLTISSLQPDDFATYYCFQGSGYPFTFGGGTKVEIKR
27

Give a short answer stating reported Kd for A13c4 IgG (antibody, V domains shown) VH: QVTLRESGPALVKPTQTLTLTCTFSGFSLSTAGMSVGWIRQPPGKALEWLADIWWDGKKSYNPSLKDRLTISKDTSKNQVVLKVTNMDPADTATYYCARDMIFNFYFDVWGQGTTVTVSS VL: DIQMTQSPSTLSASVGDRVTITCSLSSRVGYMHWYQQKPGKAPKLLIYDTMYQSSGVPSRFSGSGSGTEFTLTISSLQPDDFATYYCFQGSGYPFTFGGGTKVEIKR .
132
